# System: LOX IMVI
# procedure-text: NCI tumour cell line growth inhibition, 48 h
The source made the active and inactive calls. No stated cut-off is given here; in the data, active = GI50 up to about 1.1 µM and inactive = higher.
test-readout: GI50

Example entries begin here.
compound=CC(C)(C)c1ccc(C(O)(c2ccc(C(C)(C)C)cc2)c2ccc(C(C)(C)C)cc2)cc1 tested_system="LOX IMVI" val="> 100 µM (inactive)"
compound="CCOC(=O)C1Cc2c(cc3c4c(cccc24)N(C(C)=O)C3)N(C)C1 (stereo not drawn)" tested_system="LOX IMVI" val="6.35 µM (inactive)"
compound=Fc1cc(C2=Nn3c(CNc4ccc(Cl)cc4)nnc3S/C2=C\c2ccc(-c3ccc(Cl)cc3)o2)c(Cl)cc1Cl tested_system="LOX IMVI" val="22.8 µM (inactive)"
compound=Oc1ccc(Nc2nc(Cl)c3nc[nH]c3n2)cc1 tested_system="LOX IMVI" val="63.5 µM (inactive)"
compound="COc1cc(C2c3cc4c(cc3[C@@H](Nc3ccc([N+](=O)[O-])cc3)C3COC(=O)[C@H]23)OCO4)cc(OC)c1O (stereo partly drawn)" tested_system="LOX IMVI" val="0.459 µM (active)"

Quick one: GI50 of COCOc1ccc(C2(O)Oc3cc(OCOC)ccc3C2C)c(O)c1 (stereo not drawn) ?
16.9 µM (inactive)

Dear colleague, I am looking for the recorded GI50 of the following compound: C/C(=N\NC(=N)N)C(CN(CC(C)C)CC(C)C)C(=O)Nc1ccc(C)cc1C (stereo not drawn)
> 100 µM (inactive)

Record request: GI50 value, item O=C1Nc2ccccc2/C1=N/Nc1ccc([N+](=O)[O-])cc1[N+](=O)[O-]
6.78 µM (inactive)

Please give the measured GI50 for this compound: CSc1ccc(C(=O)C(=O)c2ccc(SC)s2)s1
> 10 µM (inactive)

GI50 for CCCCCCCCCCCCc1ccsc1-c1ccc(-c2ccc(-c3sccc3CCCCCCCCCCCC)s2)s1 ?
> 100 µM (inactive)

Consider the compound O=C1/C(=C/c2ccccc2O)N=C(c2ccccc2)N1C1Nc2cc3c(cc2S1)NC(N1C(=O)/C(=C/c2ccccc2O)N=C1c1ccccc1)S3 (stereo not drawn) and give its measured GI50.
42.2 µM (inactive)

I would be grateful if you could share the reported GI50 for O=c1[nH]/c(=C/c2ccc(OCc3ccccc3)cn2)c(=O)[nH]/c1=C/c1ccc(F)cc1 .
1.62 µM (inactive)

Tell me the measured GI50 of Cn1c2ccccc2n2c3ncccc3c(=O)cc12 , please.
29.9 µM (inactive)

###

# Tested on: UACC-257
# procedure-text: NCI tumour cell line growth inhibition, 48 h
Calls of active or inactive are those of the source. Rule as the data show it: active = GI50 up to about 1.1 µM and inactive = higher.
Parameter call: string, one of active, inactive

Some entries whose results are on file:
molecule="CCOC(=O)C1Cc2c(cc3c4c(cccc24)N(C(C)=O)C3)N(C)C1 (stereo not given)" cat=inactive
molecule=CN(C)Cc1cc(C(=O)/C=C/c2c(F)cccc2Cl)cc(CN(C)C)c1O cat=inactive
molecule=COc1ccc2cc(NC(=O)N/N=C\c3ccc(Cl)cc3)ccc2c1 cat=inactive
molecule="Cc1cc(O)c2c(c1)C[C@@H](O)C1=C2C(=O)c2c(O)ccc(OC3CC(O)C(OC4CC(OC5CCC(OC6CC(O)C(OC7CC(OC8CCC(O)C(C)O8)C(O)C(C)O7)C(C)O6)C(C)O5)C(O)C(C)O4)C(C)O3)c2C1=O (stereo not given in full)" cat=active
molecule=O=C1C=Cc2c(Cl)sc(Cl)c21 cat=inactive

// return assay outcome for COC(=O)C1C(O)CCC2CN3CCc4c([nH]c5cccc(OC)c45)C3CC21 (stereo not given)
inactive

Give the logged outcome of this assay for the following molecule: O=C(O)c1cc(=O)c2cc(C(=O)c3cccs3)c(Cl)c(Cl)c2o1
inactive

Write down the call the test reported for this molecule. Item: CCOC(=O)C1=c2[nH]c3cccc4cccc(c43)n2C(=O)CC1c1ccccc1 (stereo not given)
inactive
